Target: recombinant N-terminal GST-tagged human Rho kinase 2 (ROCK2, amino acids 1-552) (Homo sapiens)
Construct: ROCK2, amino acids 1-552; purchased Invitrogen Inc. PV3759
Sequence (O75116 1-552): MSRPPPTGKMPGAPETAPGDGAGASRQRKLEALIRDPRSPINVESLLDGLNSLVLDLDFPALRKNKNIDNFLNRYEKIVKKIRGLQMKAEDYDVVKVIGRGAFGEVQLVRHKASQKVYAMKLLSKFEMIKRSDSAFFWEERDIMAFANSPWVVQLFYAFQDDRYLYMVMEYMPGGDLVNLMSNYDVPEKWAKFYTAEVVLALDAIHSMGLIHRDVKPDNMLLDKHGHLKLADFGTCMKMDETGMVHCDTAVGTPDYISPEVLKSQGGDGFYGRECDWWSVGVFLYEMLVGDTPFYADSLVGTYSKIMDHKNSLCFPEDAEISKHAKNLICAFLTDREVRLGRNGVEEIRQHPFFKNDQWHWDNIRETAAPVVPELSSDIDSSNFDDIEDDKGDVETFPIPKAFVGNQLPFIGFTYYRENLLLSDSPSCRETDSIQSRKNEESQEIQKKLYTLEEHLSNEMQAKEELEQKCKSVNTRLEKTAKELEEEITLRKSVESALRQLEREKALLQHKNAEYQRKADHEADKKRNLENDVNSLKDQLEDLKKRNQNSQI
Experiment: In vitro Rho kinase assay (luciferase-based ATP consumption), ROCK2
Assay type: biochemical
Conditions: recombinant GST-tagged human ROCK2, luciferase-based ATP consumption; read-out: ROCK2 IC50
MEASUREMENT_NAME: IC50

Incoming: Fill in IC50 for record CC(=O)NC(Cc1ccc(O)cc1)C(=O)NCc1ccc2sc(-c3ccnc(N)n3)c(C)c2c1 (centres unmarked)
Outgoing: > 5 µM

Incoming: Please look at this compound and report its IC50: Cc1c(-c2ccnc(N)n2)sc2ccc(C(=O)NCCCCO)cc12
Outgoing: < 5 µM

Incoming: Annotate the compound Cc1c(-c2ccnc(N)n2)sc2ccc(C(=O)NCC3CCCO3)cc12 (centres unmarked) with its measured IC50.
Outgoing: < 5 µM

Incoming: For COc1ccc(C(=O)NCc2ccc3sc(-c4ccnc(N)n4)c(C)c3c2)c(O)c1 , write its IC50.
Outgoing: < 5 µM

Incoming: Report IC50 for Cc1c(-c2ccnc(N)n2)sc2ccc(CNC(=O)c3ccc(F)cc3F)cc12
Outgoing: < 5 µM

Incoming: Quote IC50 reported for Cc1c(-c2ccnc(N)n2)sc2ccc(-c3ccccc3)cc12 please.
Outgoing: > 5 µM

Incoming: State its IC50 for this compound: Cc1c(-c2ccnc(N)n2)sc2ccc(Nc3cccc(NC(=O)c4ccc(OCCN5CCOCC5)cc4)c3)cc12
Outgoing: < 5 µM

Incoming: Tell me measured IC50 for Cc1c(-c2ccnc(N)n2)sc2ccc(CNC(=O)c3ccnc(Cl)c3)cc12 please.
Outgoing: < 5 µM
